Hey, just so you know, these numbers are from ChEMBL document CHEMBL4831502.

# assay.summary: Selectivity index, ratio of GI50 for cytotoxicity against human HEK293 cells to IC50 for inhibition of TGF-beta signalling pathway
experimental.endpoint: Selectivity Index
Answers are plain numbers.

Field: example entries. Status: answers known.
> print(dat)
                                   compound  numeric.readout
1  Fc1ccc(CN2CCN(c3nnc(Nc4ccc(N5CCOCC5)cc4)c4ccccc34)CC2)cc1F             3.06
2  Brc1cccc(CN2CCN(c3nnc(Nc4ccc(N5CCOCC5)cc4)c4ccccc34)CC2)c1             9.98
3  COc1cccc(CN2CCN(c3nnc(Nc4ccc(N5CCOCC5)cc4)c4ccccc34)CC2)c1             1.89
4  Fc1cccc(CN2CCN(c3nnc(Nc4ccc(N5CCOCC5)cc4)c4ccccc34)CC2)c1             4.79

Below: the item to evaluate.
Can you share its Selectivity Index? I mean this molecule: Clc1cccc(CN2CCN(c3nnc(Nc4ccc(N5CCOCC5)cc4)c4ccccc34)CC2)c1 9.05

* * *

# assay.summary: Selectivity index, ratio of GI50 for cytotoxicity against human HEK293 cells to IC50 for inhibition of TGF-beta signalling pathway
# if value of Selectivity Index reaches 10, tag 1; if it stays below, tag -1

Check out these entries, answers already filled in.
> print(dat)
                                   compound  assigned.class
1  CC1CN(c2ccc(Nc3nnc(N4CCN(Cc5cccc(C(F)(F)F)c5)CC4)c4ccccc34)cc2)CC(C)O1 (centres undefined)               1
2  FC(F)(F)c1cccc(CN2CCN(c3nnc(Nc4ccc(N5CCOCC5)cc4)c4ccccc34)CC2)c1               1
3  FC(F)(F)c1cccc(CN2CCN(c3nnc(NCCN4CCCCC4)c4ccccc34)CC2)c1              -1
4  Clc1cccc(Cl)c1CN1CCN(c2nnc(Nc3ccc(N4CCOCC4)cc3)c3ccccc23)CC1              -1
5  Fc1ccc(CN2CCN(c3nnc(Nc4ccc(N5CCOCC5)cc4)c4ccccc34)CC2)c(F)c1              -1
6  FC(F)(F)c1cccc(CN2CCN(c3nnc(N4CCCCC4)c4ccccc34)CC2)c1              -1

Does FC(F)(F)c1cccc(CN2CCN(c3nnc(NC4CCCCC4)c4ccccc34)CC2)c1 have a reported Selectivity Index of at least 10? -1

Does Brc1ccc(CN2CCN(c3nnc(Nc4ccc(N5CCOCC5)cc4)c4ccccc34)CC2)cc1 have a reported Selectivity Index of at least 10? -1

Does Cc1cccc(CN2CCN(c3nnc(Nc4ccc(N5CCOCC5)cc4)c4ccccc34)CC2)c1 have a reported Selectivity Index of at least 10? -1

* * *

# assay.summary: Selectivity index, ratio of GI50 for cytotoxicity against human HEK293 cells to IC50 for inhibition of TGF-beta signalling pathway
Can you tell me Selectivity Index for the items I'm about to list?
One number for each entry.

Field: example entries. Status: answers known.
> print(dat)
                                   compound  numeric.readout
1  OC1CCN(c2nnc(N3CCN(Cc4cccc(C(F)(F)F)c4)CC3)c3ccccc23)CC1             6.49
2  O=[N+]([O-])c1cccc(CN2CCN(c3nnc(Nc4ccc(N5CCOCC5)cc4)c4ccccc34)CC2)c1             7.55

Below: the item to evaluate.
Can you share its Selectivity Index? I mean this molecule: Brc1ccccc1CN1CCN(c2nnc(Nc3ccc(N4CCOCC4)cc3)c3ccccc23)CC1 2.12
